Values from patent US10517867B2

Listing of recorded Solubility by entry.
- experiment.summary: Determination of solubility in deionized water (HPLC, external standard)
- assay.context: 25±2° C., after 30 min

Recorded Solubility, per entry:
[[record]]
compound = "CC[C@@H]([C@H](C)O)n1ncn(-c2ccc(N3CCN(c4ccc(OC[C@@H]5CO[C@@](Cn6c[n+](C(C)OC(=O)N(C)c7ncccc7COC(=O)[C@@H](N)CCCN)cn6)(c6ccc(F)cc6F)C5)cc4)CC3)cc2)c1=O (stereo partly drawn) [ST0011]"
measure = "Solubility"
result = ">50 mg/mL"

[[record]]
compound = "CC[C@@H]([C@H](C)O)n1ncn(-c2ccc(N3CCN(c4ccc(OC[C@@H]5CO[C@@](Cn6c[n+](C(C)OC(=O)N(C)c7ncccc7COC(=O)[C@@H](N)CCCN)cn6)(c6ccc(F)cc6F)C5)cc4)CC3)cc2)c1=O (stereo partly drawn) [ST0003]"
measure = "Solubility"
result = ">50 mg/mL"


Query compound follows.
Exercise: Item "CC[C@@H]([C@H](C)OC(=O)OCCOCCOP(=O)([O-])[O-])n1ncn(-c2ccc(N3CCN(c4ccc(OC[C@@H]5CO[C@@](Cn6cncn6)(c6ccc(F)cc6F)C5)cc4)CC3)cc2)c1=O.[Na+].[Na+]" has what recorded Solubility?
Key: >50 mg/mL
